- Tested on: BDF1 mice, P388 leukemia ip, median survival T/C
- experiment-description: NCI In Vivo Anticancer Drug Screen. Data for tumor model P388 Leukemia (intraperitoneal) in B6D2F1 (BDF1) mice
- run-conditions: endpoint: median survival time; dose: 50.0 mg/kg/injection; schedule: Q01DX009 (ip); vehicle: saline with Tween-80; higher = longer survival
- Experimental: The antitumor activity of compounds was measured in mice bearing transplantable tumors. Survival or tumor size were measured and the results are expressed as the measurement made in the treated group (T) divided by the measurement made in the vehicle treated control group (C). The tumor model used in this assay is P388 Leukemia (intraperitoneal) in B6D2F1 (BDF1) mice
Toxic doses and inconclusive results are not listed.

compound | experimental-system | T/C
CC(=O)OC1CCCc2c1nc1ccccc1[n+]2[O-] (stereo not drawn) | BDF1 mice, P388 leukemia ip, median survival T/C | 88 % of control
C=CC(C)(C(=O)O)C(C)C (stereo not drawn) | BDF1 mice, P388 leukemia ip, median survival T/C | 101 % of control
CC(=Nc1ccccc1)C1=C(O)C(Cc2ccccc2)NC1=O (stereo not drawn) | BDF1 mice, P388 leukemia ip, median survival T/C | 124 % of control
CC(=O)OCC(COC(C)=O)=C1N=C(c2ccccc2)OC1=O | BDF1 mice, P388 leukemia ip, median survival T/C | 107 % of control
C=C1CCCCC1O (stereo not drawn) | BDF1 mice, P388 leukemia ip, median survival T/C | 101 % of control
CCCC(NC(N)=O)C(CCC)NC(N)=O (stereo not drawn) | BDF1 mice, P388 leukemia ip, median survival T/C | 89 % of control
CC(C)c1nsc2c1C(=O)NC(C(C)(C)C)N2 (stereo not drawn) | BDF1 mice, P388 leukemia ip, median survival T/C | 109 % of control
CCOC(=O)/C(=N\O)C1=CSC2=NNC(C)(C)N12 | BDF1 mice, P388 leukemia ip, median survival T/C | 95 % of control
Cc1[o+]c(C)c2c(c1C)-c1ccccc1C2=O | BDF1 mice, P388 leukemia ip, median survival T/C | 106 % of control
O=C1OC2(CCCCC2)OC(=O)C1=C/C=C/c1ccc([N+](=O)[O-])o1 | BDF1 mice, P388 leukemia ip, median survival T/C | 112 % of control
COc1c(O)c(OC)c(C(=O)/C=C/c2ccccc2)c(O)c1OC | BDF1 mice, P388 leukemia ip, median survival T/C | 114 % of control
CCN(CC)c1nc(N(C)C)nc(N(C)C)n1 | BDF1 mice, P388 leukemia ip, median survival T/C | 105 % of control
Clc1ccccc1N1CN(c2ccccc2Cl)CN(c2ccccc2Cl)C1 | BDF1 mice, P388 leukemia ip, median survival T/C | 104 % of control

src = PubChem BioAssay AID328
